Test system: A498 renal
Assay: NCI-60 one-dose screen, 48 h
Details: 10 µM unless noted
This is part of a sample that, as a whole, favours compounds with a hit. Of some 83,000 tested, about 20% had one in any assay. Active and inactive are the calls of the source. How the source made its calls: active means growth percent below 10; inactive means the rest.
Log the outcome using a class from t (active), f (inactive)

*Q* Lab log entry: COc1ccc(C2CC(c3cc(OC)c(OC)c(OC)c3)=NO2)cc1OCCCCOc1cc2c(cc1OC)C(=O)N1CCC[C@H]1C=N2 (some centres undefined) — outcome as called in the assay?
*A* t

*Q* Lab log entry: COc1cc(OC)c(/C=C/C(=O)c2c(O)cc(OC)c(C3CCN(C)CC3)c2OC)c(OC)c1 — outcome as called in the assay?
*A* f

*Q* Lab log entry: COc1cc(C2C(C(=O)OCc3ccccc3)=C(C)NC(C)=C2C(=O)OCc2ccccc2)cc(OC)c1OC — outcome as called in the assay?
*A* f

*Q* Lab log entry: CN1CCN(c2ccc(NC(=O)c3cncnc3Nc3ccc(OCc4cccc(F)c4)c(Cl)c3)cc2)CC1 — outcome as called in the assay?
*A* f

*Q* Lab log entry: COc1ccc(/C=C/c2ccc3ccccc3n2)c(OC)c1 — outcome as called in the assay?
*A* f

*Q* Lab log entry: O=C(Nc1cc(Cl)ccc1O)c1cccc(Nc2ccnc(C(F)(F)F)c2)c1 — outcome as called in the assay?
*A* f

*Q* Lab log entry: COc1cc(/C=C/C(=O)c2ccc(-n3cc(CN4CCN(c5cc6c(cc5F)c(=O)c(C(=O)O)cn6C5CC5)CC4)nn3)cc2)ccc1O — outcome as called in the assay?
*A* f

*Q* Lab log entry: O=S(=O)(Oc1ccc(Br)cc1)c1ccc(Cl)cc1 — outcome as called in the assay?
*A* f

*Q* Lab log entry: NC1(CO)COC(c2ccccc2)OC1 (centres undefined) — outcome as called in the assay?
*A* f

*Q* Lab log entry: CCOC(=O)c1[nH]c2c(c1C)-c1[nH]c(=O)c(S(=O)(=O)c3ccccc3)cc1SC2 — outcome as called in the assay?
*A* f

*Q* Lab log entry: CC(C)N1C(=O)/C(=c2\sc3n(c2=O)C2C(NN=3)N(C)C(=O)N2C)c2ccccc21 (centres undefined) — outcome as called in the assay?
*A* f

*Q* Lab log entry: CN(Cc1ccccc1)c1nc(Cl)c(C2CC(c3ccccc3)=NN2c2ccccc2)s1 (centres undefined) — outcome as called in the assay?
*A* f

*Q* Lab log entry: CC1=C(CCC(C)NCc2ccc(OCCCN3CCCCC3)cc2)C(C)(C)CCC1 (centres undefined) — outcome as called in the assay?
*A* t

*Q* Lab log entry: C[C@]1(O)CC(=O)[C@]2(O)C3=C(C=C[C@]2(O)C1)C(=O)c1c(O)cccc1C3=O — outcome as called in the assay?
*A* f

*Q* Lab log entry: CO[C@H]1CC(=O)n2c3ccccc3c3c4c(c5c6ccccc6n1c5c32)C(=O)NC4=O — outcome as called in the assay?
*A* f

*Q* Lab log entry: COc1ccc2c(c1)c(/C(O)=C1\COC(=O)C1=O)cn2Cc1ccc(F)cc1 — outcome as called in the assay?
*A* f

*Q* Lab log entry: CNC1=C([N+](=O)[O-])C(c2ccc(OC)cc2)C(C#N)=C(c2cccs2)O1 (centres undefined) — outcome as called in the assay?
*A* f

*Q* Lab log entry: CCN(CC)CCCN1C(=O)c2c(c(C)c3c(oc4ccc(O)cc43)c2C)C1=O — outcome as called in the assay?
*A* f

*Q* Lab log entry: C#Cc1cccc(Nc2nc(C)nc3cc(NC(=O)CCl)ccc23)c1 — outcome as called in the assay?
*A* f
